Target: T1, AA peptide
T1 construct: The peptide was coated on the Octet sensor; also called peptide with N-terminal alanine and penultimate alanine
Assay: BLI (Octet), peptide on sensor, purified protein in solution
endpoint: Octet response after 200 sec association (nm)
The reply should contain only the number, in nm.

PS833 (designed binder, Variant of PS557) MPTAASATESAIEDTPAPARPVVDGRTKPKRQPRYHVVLWDDDDHTYQYVVVMLQSLFGHPPERGYRLAKEMDTQGRVIVLTTTREHAELKRDQIHAFGYDRLLARSKGSMKASIEAEE ... 1
PS828 (designed binder, Variant of PS557) MPTAASATESAIEDTPAPARPEVDGRTKPKRQPRYHVVLWDDDDHTYQYVVVMLQSLFGHPRERGYRLAKEVDTLGRVIVLTTTREHAELKRDQIHAFGYDRLLARSKGSMKASIEAEE ... 0.469
PS808 (designed binder, Variant of PS557; also called Q55R) MPTAASATESAIEDTPAPARPEVDGRTKPKRQPRYHVVLWNDDDHTYQYVVVMLRSLFGHPPERGYRLAKEVDTQGRVIVLTTTREHAELKRDQIHAFGYDRLLARSKGSMKASIEAEE ... 0.0027

In the following, a different binder is considered.
Q: Given PS796 (designed binder, also called N41D, V72M) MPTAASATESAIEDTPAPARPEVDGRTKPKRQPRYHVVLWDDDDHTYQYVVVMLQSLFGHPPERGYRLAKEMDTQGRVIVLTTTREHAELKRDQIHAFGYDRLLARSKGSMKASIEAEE , state its recorded Octet response after 200 sec association.
Ans: 3.5
